test system: CAKI-1 renal; assay: NCI-60 one-dose screen, 48 h (100 = growth as untreated, 0 = no growth, -100 = all killed); settings: 10 µM unless noted
Compounds without any hit were thinned out: in the full panel of roughly 83,000, 20% have a hit.
What growth was measured for each of the following?
Numbers only, in %.

Record excerpt, results attached:
Cpd smiles: O=C(CN1CCOCC1)Nc1ccc(Cn2nnc3c2C(=O)c2nnn(Cc4ccc(NC(=O)CN5CCOCC5)cc4)c2C3=O)cc1
growth / %: 72.9

Cpd smiles: Oc1cccc(Nc2nccc(-c3ccc4ccccc4c3)n2)c1
growth / %: 24

Cpd smiles: O=c1ccc2cc3ccccc3cc2[nH]1
growth / %: 78.4

Cpd smiles: CN[C@@]12CC3(C=CC(=O)C=C3)O[C@]1(Cc1ccc(OC)cc1)N(C)C(=O)N2
growth / %: 72.9

Here is another molecule to look at.
Exam item: Tell me its growth on CAKI-1 renal: CCN(CC)CC#CCOC(=O)[C@]1(C)CCC[C@@]2(C)[C@H]1CC(C=O)=C1C=C(C(C)C)CC[C@@H]12
Marked response: 101

----------
test system: SNB-19 CNS; assay: NCI-60 one-dose screen, 48 h; conditions: 10 µM unless noted
About 83,000 compounds went through this panel and 20% of them were active in at least one assay; those are over-represented in the sample as a whole. Calls of active or inactive are those of the source. How the source made its calls: active means growth percent below 10; inactive means the rest.
Bench note: report the call from True = active, False = inactive

For orientation, consider the following solved cases.
Cpd smiles: Nc1c(C(=O)Nc2ccccc2)sc2nc3c(cc12)CN(CCc1ccccc1)CC3
Label value: False
--
Cpd smiles: CC/C(Cc1ccccc1)=C(/c1ccc(O)cc1)c1ccc(OCCN2CCCC2)cc1
Label value: True
--
Cpd smiles: COc1ccc(/C(=C/c2ccc3ccccc3c2)c2nn[nH]n2)cc1OC
Label value: False
--
Cpd smiles: Cc1ccccc1CCO
Label value: False
--
Cpd smiles: COc1ccc(-n2c(C)nc3c(c(C)nn3-c3ccccc3)c2=O)cc1
Label value: False

Exam item: Recorded test outcome, item COc1ccc(C(=O)/C=C/c2c[n+](=O)c3ccc(F)cc3n2[O-])cc1
Marked response: False

----------
Tested on: RXF 393 renal
Experiment: NCI-60 one-dose screen, 48 h
Details: 10 µM unless noted
Description: Cells are grown in 96 well plates and exposed to the test compound for 48 hours. Compounds are tested at a single concentration, which is 10^-5 M for most compounds. The reported endpoint is percent growth (GI% or GIPRCNT), where numbers from 0 - 100% represent growth inhibition, and numbers from -100% - 0 represent cell death. For example, a value of 40 represents 60% growth inhibition. A value of 0 means no net growth occurred over the course of the experiment. […]
The panel holds about 83,000 compounds, 20% with a hit somewhere; the sample as a whole holds those more often. The source made the active and inactive calls. How the source made its calls: active means growth percent below 10; inactive means the rest.
Bench note: report the call from active, inactive

For orientation, consider the following solved cases.
Compound: COc1cc(NCCCCN=C(N)NC(N)=NC(C)C)c2ncccc2c1
Label value: inactive
//
Compound: OCCNCCNc1c2ccccc2nc2ccccc12
Label value: inactive
//
Compound: CC[C@H](CO)Nc1nc(NCc2ccccc2)n2ncc(C(C)C)c2n1
Label value: active

Exam item: Recorded test outcome, item CSc1nc(NCCO)c(C#N)c(-c2cccc(N)c2)n1
Marked response: inactive

Exam item: Recorded test outcome, item CCOC(=O)/C=C/c1ccc(C(=O)OCC)[nH]1
Marked response: inactive

----------
test system: NCI-H23 lung; assay: NCI-60 one-dose screen, 48 h (100 = growth as untreated, 0 = no growth, -100 = all killed); conditions: 10 µM unless noted
This is part of a sample that, as a whole, favours compounds with a hit. Of some 83,000 tested, about 20% had one in any assay.
What growth was measured for each of the following?
Numbers only, in %.

Record excerpt, results attached:
Molecule: CCC(c1ccccc1)C(CC)c1ccc(O)c(O)c1 (stereo unspecified)
Units label: %
growth: 89.5

Molecule: CCN(CC)CCCNc1cc(OC)cc2nc3cc(Cl)ccc3nc12
Units label: %
growth: -46.7

Molecule: O=c1c2cccc3c(Nc4ccccn4)ccc(c32)c2nc3ccccc3n12
Units label: %
growth: 60.6

Molecule: CCN(CC)CCCC(C)Nc1ccnc2c(OC)cccc12 (stereo unspecified)
Units label: %
growth: 106

Molecule: CC(=O)O[C@H]1CC[C@]2(C)[C@H]3CC[C@@H]4[C@H]5[C@H](C(C)C)CC[C@]5(C(=O)OCC(CO)(CO)N=C(N)N)CC[C@@]4(C)[C@]3(C)CC[C@H]2C1(C)C
Units label: %
growth: 77.7

Molecule: COC(=S)SCN(CSC(=S)OC)c1ccc(Cl)cc1
Units label: %
growth: 80

Molecule: c1ccc(CSc2ncnc3nc[nH]c23)nc1
Units label: %
growth: 99.1

Molecule: Cc1ccc2c(NCCCN(C)C)c3c(C)nn(C)c3nc2c1
Units label: %
growth: 51.6

For every listed record, write down its growth.
1. COc1ccc(S(=O)(=O)NCCCNc2cc(-c3c(-c4cccc(OC)c4)nc4sccn34)ccn2)cc1
2. CCN(CC)CCCCNc1ccc(NCCCCN(CC)CC)c2c1C(=O)c1ccccc1C2=O
3. COc1ccc(C(=O)COc2ccc(/C=C3\Oc4ccc(Cl)cc4C3=O)cc2)cc1
4. COc1cc(OC)c(/C=C/c2cc[n+](C)c3ccccc23)c(OC)c1
5. Cc1ccn2c(-c3csc(Nc4cccc(O)c4)n3)c(C)nc2c1
6. CCCCCCCCCCCCCCCCNCCC[C@@H](C)[C@H]1CC[C@H]2[C@@H]3[C@H](OCCCN)C[C@@H]4C[C@H](OCCCN)CC[C@]4(C)[C@H]3C[C@H](OCCCN)[C@]12C
7. OCCNCCNc1c2ccccc2nc2ccccc12
8. CCN(CC)c1ccc(CNc2cc(C)nc3ccc(OC)cc23)cc1

Marked response:
1. 59.8
2. 77.5
3. 67.6
4. 17.3
5. 25.5
6. -39.7
7. 64.8
8. 21.2

----------
system: NCI-H226 lung; assay: NCI-60 one-dose screen, 48 h; settings: 10 µM unless noted
The panel holds about 83,000 compounds, 20% with a hit somewhere; the sample as a whole holds those more often. The source made the active and inactive calls. How the source made its calls: active means growth percent below 10; inactive means the rest.
Bench note: report the call from active, inactive

Molecule: CCOC(=O)c1c2c(n3ccc(NC(=O)CCN(CC)CC)cc13)C(=O)c1ncccc1C2=O
Label value: inactive
//
Molecule: CCCCCCCCCC(=O)Oc1ccc(/C(=C(/C)Cc2cccc(OC)c2)c2ccc(OCCN(C)C)cc2)cc1
Label value: inactive
//
Molecule: CCOC(=O)CC(=O)c1c(C)cc(C)cc1C
Label value: inactive
//
Molecule: CC(=O)C1=C(O)C=C2Oc3c(C(=O)/C=C/c4cc(Cl)cc(Cl)c4)c(O)c(C)c(O)c3[C@]2(C)C1=O
Label value: active
//
Molecule: CCOC(=O)C12CCCC1=CC(=O)CC2 (centres undefined)
Label value: inactive
//
Molecule: CCOC(=O)c1nc(Nc2cc(C)[nH]n2)c2ccccc2n1
Label value: inactive
//
Molecule: NC(=S)N/N=C/c1ccc(OCc2ccccc2)cc1
Label value: inactive
//
Molecule: C[C@@H]1CCC2=C(CCC[C@]2(C)C(=O)O)[C@@]1(C)CCc1ccoc1
Label value: inactive
//
Molecule: COc1cccc(/C=C\C(=O)c2ccccc2)c1
Label value: inactive
//
Molecule: CC/C=C\C[C@H](O)C/C=C1/C(=O)C=C[C@@H]1C/C=C\CCCC(N)=O
Label value: active

API: the following record is the query input.
Exam item: Recorded test outcome, item C=C1CCC2C3(C)COC(c4ccc(SC)cc4)OC3CCC2(C)C1C/C=C1/C(=O)OCC1O (centres undefined)
Marked response: inactive

----------
system: NCI-H226 lung; test: NCI-60 one-dose screen, 48 h; settings: 10 µM unless noted
Compounds without any hit were thinned out: in the full panel of roughly 83,000, 20% have a hit. Activity calls are given as the source filed them. Rule for the calls: active = growth percent below 10; inactive = the rest.
Bench note: report the call from active, inactive

Exam item: Recorded test outcome, item NS(=O)(=O)c1ccc(Nc2nc3n[nH]c(Nc4ccccc4)c3c(=O)[nH]2)cc1
Marked response: inactive

----------
What growth was measured for each of the following?
test system: UACC-62 melanoma; test: NCI-60 one-dose screen, 48 h (100 = growth as untreated, 0 = no growth, -100 = all killed); settings: 10 µM unless noted
The panel holds about 83,000 compounds, 20% with a hit somewhere; the sample as a whole holds those more often.
Give bare numbers, in %.

Record excerpt, results attached:
Compound: O=C(/C=C/c1ccc(Cl)cc1)c1ccc(O)c(CN2CCN(c3cc4c(cc3F)c(=O)c(C(=O)O)cn4C3CC3)CC2)c1
Tested system: UACC-62 melanoma
Units label: %
growth: 38.2
//
Compound: COc1ccc(C2CC(=O)Nc3c2c(C)nn3-c2nc3ccccc3[nH]2)cc1 (centres undefined)
Tested system: UACC-62 melanoma
Units label: %
growth: 104

For every listed record, write down its growth.
1. CCCNc1nc(SC)nc(-c2cccc(N)c2)c1C#N
2. COc1ccc(-c2cn3c(-c4ccc(OC)cc4)cnc3c(Oc3ccc4c(C)cc(=O)oc4c3)n2)cc1
3. CCN(CC)CCCC(C)N/C(=C1\C(=O)NC(=O)\C1=C(/NC(C)CCCN(CC)CC)c1cccc(OC)c1)c1cccc(OC)c1 (centres undefined)
4. CCN(CC)CCCNc1cc(OC)cc2nc3cc(Cl)ccc3nc12
5. Cc1ccc2c(c1)C(=O)c1c-2c(OCCCN(C)C)nc2ccccc12
6. O=C(/C=C\c1ccc2ccccc2n1)c1cc(Cl)ccc1O
7. COc1cnc2c(c1)C(=O)c1c-2n(CCCN2CCNCC2)c(=O)c2cc([N+](=O)[O-])ccc12

Marked response:
1: 89.4; 2: 50.1; 3: -14.7; 4: -80.6; 5: -66; 6: 71.4; 7: -82
